- Test system: LOX IMVI
- ASSAY NOTES: Antiproliferative activity against human LOX IMVI cells assessed as cell growth inhibition incubated for 72 hrs by Beckman Coulter counting method
- Type: functional, cell-based
READOUT NAME: IC50 (nM)
Give bare numbers, in nM.

# input compound: OC[C@H]1O[C@@H](n2cnc3c(NCc4ccco4)ncnc32)[C@H](O)[C@@H]1O [KINETIN RIBOSIDE] ; wanted: its IC50
160

====

Please respond with reported IC50 at 24 h for every item in the list.
- ASSAY NOTES: Cytotoxicity against human MRC5 cells assessed as reduction in cell viability incubated for 24 hrs by MTT assay
- Type: toxicity, cell-based

>>> reported_result("OC[C@H]1O[C@@H](n2cnc3c(NCc4ccco4)ncnc32)[C@H](O)[C@@H]1O [KINETIN RIBOSIDE]")
"18 µM"

Dear colleague, could you please provide IC50 at 24 h for the compounds listed below?
1. OC[C@H]1O[C@@H](n2cnc3c(NCc4ccoc4)ncnc32)[C@H](O)[C@@H]1O
2. Nc1nc(NCc2ccco2)nc2c1ncn2[C@@H]1O[C@H](CO)[C@@H](O)[C@H]1O
3. OC[C@H]1O[C@@H](n2cnc3c(NCc4ccco4)ncnc32)C[C@@H]1O
4. OC[C@H]1O[C@@H](n2cnc3c(NCc4cccs4)ncnc32)[C@H](O)[C@@H]1O
5. OC[C@H]1O[C@@H](n2nnc3c(NCc4ccco4)ncnc32)[C@H](O)[C@@H]1O
6. OC[C@H]1O[C@@H](n2cnc3c(NCc4ccco4)ncnc32)[C@@H](O)[C@@H]1O

["16 µM", "> 100 µM", "> 100 µM", "12.7 µM", "> 100 µM", "> 100 µM"]

# input compound: Nc1nc(NCc2ccco2)c2ncn([C@@H]3O[C@H](CO)[C@@H](O)[C@H]3O)c2n1 ; wanted: its IC50 at 24 h
> 100 µM
